target: serotonin 5-HT2C receptor (isoform type VSV, stably expressing CHO cell) (Homo sapiens, UniProt P28335, I156V/I160V/N158S); assay: cell-based; conditions: CHO, read-out: ratio relative to maximum response by 5-HT (1 μM)
Sequence (P28335 33-458 I156V/N158S/I160V limits assumed): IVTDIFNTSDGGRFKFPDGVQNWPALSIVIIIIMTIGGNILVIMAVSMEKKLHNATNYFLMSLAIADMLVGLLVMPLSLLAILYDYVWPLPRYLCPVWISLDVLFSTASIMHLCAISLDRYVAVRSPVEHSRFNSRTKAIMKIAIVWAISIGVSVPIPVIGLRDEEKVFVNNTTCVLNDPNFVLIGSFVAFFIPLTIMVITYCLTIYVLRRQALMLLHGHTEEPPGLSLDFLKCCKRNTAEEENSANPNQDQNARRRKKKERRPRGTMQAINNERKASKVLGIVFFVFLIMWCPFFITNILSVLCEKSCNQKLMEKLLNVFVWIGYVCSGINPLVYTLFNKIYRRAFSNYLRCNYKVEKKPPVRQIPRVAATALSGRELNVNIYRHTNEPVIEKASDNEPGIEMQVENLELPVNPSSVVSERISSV
Where a name gives a salt, the structure may show the parent alone.
# Emax annotations

| Compound | Units label | Emax |
| --- | --- | --- |
| c1cc2c(nc1C1CC1)CCNC2 [Example 43, hydrochloride] | % | 97 |
| CC1CNCc2ccc(N3CCOC[C@H]3C)nc21 (some centres unmarked) [Example 48, hydrochloride] | % | 95.5 |
| c1cc(-c2ccc3c(n2)CCNC3)co1 [Example 26, dihydrochloride] | % | 98.2 |
| C[C@H]1COCCN1c1ccc2c(n1)CCNC2 [Example 8, hydrochloride] | % | 90.8 |
| CC(C)c1ccc2c(n1)CCNC2 [Example 24, hydrochloride] | % | 101 |

FYI, the data here is from patent US20100266504A1.
